B1: ZNF511 (parent)
chain: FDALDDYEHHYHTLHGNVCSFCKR

# Variants of: B1
# PROTOCOL DESCRIPTION: protein stability index of a GFP-peptide fusion (GPS, HEK-293T) (PSI 1-6); higher = more stable;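 also: lentivirally expressed fusions sorted by FACS into six bins by GFP to DsRed ratio, PSI derived from sequencing read proportions per bin multiplied by bin number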
# RUN CONDITIONS: c terminus: a fixed tail appended
Classify as follows. Reported protein stability index greater than or equal to 4: T. Reported protein stability index below: F.

R24P    F

INPUT: State whether the measured protein stability index reaches 4, counting equality as reaching it, for V18S
OUTPUT: F

INPUT: Again, but for N17P
OUTPUT: F

INPUT: Consider next the variant T13M in the same way.
OUTPUT: F

INPUT: Do the same for Y11H please
OUTPUT: T

INPUT: Cool, now D2C
OUTPUT: F

INPUT: Try this variant too: E8P
OUTPUT: F

INPUT: Item: V18F
OUTPUT: F

INPUT: Now this one: E8C
OUTPUT: T

INPUT: Also need L14N , thanks.
OUTPUT: T

INPUT: Repeat for the following variant: C22H
OUTPUT: F

INPUT: What do you get for G16Q ?
OUTPUT: F

INPUT: Entry to check: H10N
OUTPUT: F

INPUT: Another variant to check: Y7F
OUTPUT: F

INPUT: Also, C19D please.
OUTPUT: F

INPUT: Repeat with H12R
OUTPUT: F

INPUT: Repeat with K23W
OUTPUT: F

INPUT: One more variant: G16C
OUTPUT: F

INPUT: Same question, E8Q this time
OUTPUT: F

INPUT: Another: C22A
OUTPUT: F
